Target: T1, B3GNT2 (Homo sapiens, UniProt Q9NY97)
T1 construct: The respective ORFs of candidate genes [CD274 (NM_014143), MCL1 (NM_021960), JUNB (NM_002229), and B3GNT2 (NM_006577)] were synthesized; expressed in transfected cells; host or cells: A375 melanoma cells (lentiviral ORF overexpression)
T1 sequence (Q9NY97 1-397): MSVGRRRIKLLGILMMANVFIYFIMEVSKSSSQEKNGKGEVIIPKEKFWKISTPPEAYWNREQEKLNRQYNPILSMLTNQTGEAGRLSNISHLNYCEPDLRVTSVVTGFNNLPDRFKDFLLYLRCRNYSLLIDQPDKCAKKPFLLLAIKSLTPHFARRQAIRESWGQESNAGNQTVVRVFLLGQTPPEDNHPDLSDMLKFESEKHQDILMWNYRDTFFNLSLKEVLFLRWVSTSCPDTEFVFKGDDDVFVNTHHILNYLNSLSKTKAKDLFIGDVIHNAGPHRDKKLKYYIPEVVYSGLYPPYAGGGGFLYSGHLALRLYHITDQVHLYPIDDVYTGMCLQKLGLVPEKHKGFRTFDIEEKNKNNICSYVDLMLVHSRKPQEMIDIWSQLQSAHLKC
Assay: Co-IP of FLAG-tagged B3GNT2 followed by mass spectrometry
Type: cell-based
Set-up: unit not given here
Details: Co-IP with FLAG antibody, C-terminally FLAG-tagged B3GNT2; mass spectrometry count, unit not given

- Molecule: "CHCHD6 (protein) GSTESSEGRRVSFGVDEEERVRVLQGVRLSENVVNRMKEPSSPPPAPTSSTFGLQDGNLRAPHKESTLPRSGSSGGQQPSGMKEGVKRYEQEHAAIQDKLFQVAKREREAATKHSKASLPTGEGSISHEEQKSVRLARELESREAELRRRDTFYKEQLERIERKNAEMYKLSSEQFHEAASKMESTIKPRRVEPVCSGLQAQILHCYRDRPHEVLLCSDLVKAYQRCVSAAHKG"
  C-term flag: 3
- Molecule: "SLC25A10 (protein) MAAEARVSRWYFGGLASCGAACCTHPLDLLKVHLQTQQEVKLRMTGMALRVVRTDGILALYSGLSASLCRQMTYSLTRFAIYETVRDRVAKGSQGPLPFHEKVLLGSVSGLAGGFVGTPADLVNVRMQNDVKLPQGQRRNYAHALDGLYRVAREEGLRRLFSGATMASSRGALVTVGQLSCYDQAKQLVLSTGYLSDNIFTHFVASFIAAAGDEPPPQGGCATFLCQPLDVLKTRLMNSKGEYQGVFHCAVETAKLGPLAFYKGLVPAGIRLIPHTVLTFVFLEQLRKNFGIKVPS"
  C-term flag: 6
- Molecule: "PGAM5 (protein) MAFRQALQLAACGLAGGSAAVLFSAVAVGKPRAGGDAEPRPAEPPAWAGGARPGPGVWDPNWDRREPLSLINVRKRNVESGEEELASKLDHYKAKATRHIFLIRHSQYHVDGSLEKDRTLTPLGREQAELTGLRLASLGLKFNKIVHSSMTRAIETTDIISRHLPGVCKVSTDLLREGAPIEPDPPVSHWKPEAVQYYEDGARIEAAFRNYIHRADARQEEDSYEIFICHANVIRYIVCRALQFPPEGWLRLSLNNGSITHLVIRPNGRVALRTLGDTGFMPPDKITRS"
  C-term flag: 5
- Molecule: "SPRR1A (protein) MNSQQQKQPCTPPPQPQQQQVKQPCQPPPQEPCIPKTKEPCHPKVPEPCHPKVPEPCQPKVPEPCQPKVPEPCPSTVTPAPAQQKTKQK"
  C-term flag: 3
- Molecule: "SLC25A4 (protein) GDHAWSFLKDFLAGGVAAAVSKTAVAPIERVKLLLQVQHASKQISAEKQYKGIIDCVVRIPKEQGFLSFWRGNLANVIRYFPTQALNFAFKDKYKQLFLGGVDRHKQFWRYFAGNLASGGAAGATSLCFVYPLDFARTRLAADVGKGAAQREFHGLGDCIIKIFKSDGLRGLYQGFNVSVQGIIIYRAAYFGVYDTAKGMLPDPKNVHIFVSWMIAQSVTAVAGLVSYPFDTVRRRMMMQSGRKGADIMYTGTVDCWRKIAKDEGAKAFFKGAWSNVLRGMGGAFVLVLYDEIKKYV"
  C-term flag: 14

meta.source: patent US20240261333A1
